These data points were gathered from PubChem BioAssay AID795.

Assay: activators of LNCaP prostate cell differentiation, primary screen, flow cytometry side scatter (AID 795);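 further: androgen-responsive LNCaP prostate cancer cells in charcoal-stripped serum medium; higher shift means more granular cells and more differentiation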
Conditions: 4 d, at 10 µM
The whole screen tested about 24,000 compounds, of which about 130 (0.54%) were called active.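 How the source made its calls: active means side scatter shift above 30%; inactive means the rest.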 This is one part of a sample in which actives are shown more often than they occur.
Log the outcome using a class from Y = active, N = inactive

Status in this test for CCc1c(C)nc(N2CCN(Cc3ccccc3)CC2)[nH]c1=O ?
N

Same lookup for CCCCn1c(=S)[nH]c2ncccc2c1=O , please.
N

Same lookup for Cc1ccc(-n2nc3cc(Cl)c(NC(=O)c4ccco4)cc3n2)cc1 , please.
Y

Same lookup for O=C(C1CC1)N1CCN=C1SCc1ccc(Cl)cc1 , please.
N
